Below is a list of entries, each paired with its recorded EC50 value.
studyTarget: recombinant human NR2F6 protein (Homo sapiens)
Sequence (P10588 whole entry): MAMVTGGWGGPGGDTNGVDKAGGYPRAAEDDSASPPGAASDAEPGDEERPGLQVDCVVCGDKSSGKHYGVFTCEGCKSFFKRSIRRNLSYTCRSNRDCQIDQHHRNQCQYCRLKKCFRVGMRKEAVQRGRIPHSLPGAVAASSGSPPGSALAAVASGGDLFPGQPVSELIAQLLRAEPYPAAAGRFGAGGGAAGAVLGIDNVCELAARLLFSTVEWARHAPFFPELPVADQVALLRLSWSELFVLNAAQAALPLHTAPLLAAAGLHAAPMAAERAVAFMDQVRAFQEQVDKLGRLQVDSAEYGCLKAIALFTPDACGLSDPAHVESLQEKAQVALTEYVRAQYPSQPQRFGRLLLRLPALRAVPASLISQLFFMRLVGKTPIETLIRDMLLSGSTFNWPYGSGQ
runDescription: Biochemical NR2F6 binding assay (EnSpire label-free)
testParameters: label-free binding to immobilized purified recombinant human NR2F6; ligands 1 nM to 100 uM, 1% DMSO
Structures can show the parent of a compound that is named as a salt.
quantity: EC50

# compound, studyTarget, result
measured = [
    ("O=C(Nc1cccc2ocnc12)[C@H]1CNC[C@@H]1c1ccccc1 (racemic) [Compound I-76, dihydrochloride]", "recombinant human NR2F6 protein (Homo sapiens)", "> 50 µM"),
    ("O=C(Nc1cccc(-c2cccnc2)c1)[C@H]1CNC[C@@H]1Cc1ccccc1 (racemic) [Compound I-72, dihydrochloride]", "recombinant human NR2F6 protein (Homo sapiens)", "> 50 µM"),
    ("Cc1ccc(Oc2cccc(NC(=O)[C@H]3CNC[C@@H]3c3ccccc3)c2)cn1 (racemic) [Compound I-105, dihydrochloride]", "recombinant human NR2F6 protein (Homo sapiens)", "1 to 10 µM"),
    ("O=C(Nc1cccc2cnccc12)[C@H]1CNC[C@@H]1c1ccccc1", "recombinant human NR2F6 protein (Homo sapiens)", "< 1 µM"),
    ("O=C(Nc1cccc(-c2cccnc2)c1)[C@@H]1CN(C2CCOCC2)C[C@H]1c1ccccc1 (racemic)", "recombinant human NR2F6 protein (Homo sapiens)", "> 50 µM"),
    ("O=C(Nc1cccc2cnccc12)[C@@H]1CNC[C@@H]1c1ccccc1 [Compound I-66, dihydrochloride]", "recombinant human NR2F6 protein (Homo sapiens)", "> 50 µM"),
    ("O=C(Nc1cccc2ccccc12)[C@@H]1CNC[C@H]1c1ccccc1 [Compound I-75, hydrochloride]", "recombinant human NR2F6 protein (Homo sapiens)", "1 to 10 µM"),
]
